Biological target: E-selectin (ES-Rg) (Homo sapiens) (UniProt P16581)
Sequence: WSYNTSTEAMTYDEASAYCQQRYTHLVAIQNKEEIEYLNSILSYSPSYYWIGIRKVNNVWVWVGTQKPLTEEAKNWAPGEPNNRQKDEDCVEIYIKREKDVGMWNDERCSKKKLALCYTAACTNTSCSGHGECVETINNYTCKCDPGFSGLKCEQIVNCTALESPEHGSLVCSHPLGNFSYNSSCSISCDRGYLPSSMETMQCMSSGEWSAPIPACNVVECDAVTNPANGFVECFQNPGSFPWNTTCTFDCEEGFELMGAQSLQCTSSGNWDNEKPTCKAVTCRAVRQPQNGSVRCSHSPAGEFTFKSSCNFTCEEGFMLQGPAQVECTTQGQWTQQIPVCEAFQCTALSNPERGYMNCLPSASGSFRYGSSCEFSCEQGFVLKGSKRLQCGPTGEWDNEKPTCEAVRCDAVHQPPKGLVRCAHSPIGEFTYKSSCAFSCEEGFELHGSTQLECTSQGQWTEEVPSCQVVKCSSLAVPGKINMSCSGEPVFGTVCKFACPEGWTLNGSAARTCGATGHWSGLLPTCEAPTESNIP
Assay: filter
Conditions: 2'-NH2 on all C and U; 4 C, HSMC
quantity-measured: pKd
API: returns pKd as number; meaning -log10 of concentration in mol/L.

Under E-selectin (ES-Rg) (Homo sapiens) (UniProt P16581): report pKd of GGGAGGACGAUGCGGUAACAACAAUCAAGGCGGGUUYACCGCCCCAGUAUGAGUACAGACGACUCGCCCGA [F14.12] .
7.33

These measurements were taken from patent US20030059769.
